- Test system: human EPO production, Hep3B cells
- Test method notes: Human EPO production activity in Hep3B cells (EPO-ELISA of culture supernatant)
- Format: cell-based
- Conditions used: 24 hr, at 30 μM, values containing %, relative to maximum production
Where a name gives a salt, the structure may show the parent alone.
// boundary case: production activity (%) at 30 μM in vitro, human EPO equal to 5% maps to rule not met; strictly smaller maps to rule met

O=C(O)CNC(=O)c1c(O)ccn2cnnc12 [Example 10, hydrochloride] :: rule met
CCCc1c(Cl)c(O)c(C(=O)NCC(=O)O)c2ncnn12.Cl :: rule not met
N#Cc1cccc(-c2cc(O)c(C(=O)NCC(=O)O)c3ncnn23)c1 [Example 37, hydrochloride] :: rule not met
O=C(O)CNC(=O)c1c(O)c(-c2ccccc2)cn2cnnc12 :: rule met

Prompt: Is production activity (%) at 30 μM in vitro, human EPO strictly under 5% for the entry O=C(O)CNC(=O)c1c(O)cc(-c2cccc(F)c2F)n2ncnc12 [Example 59, acetic acid hydrochloride] ?
Response: rule not met

Prompt: I'd appreciate it if you could check whether O=C(O)CNC(=O)c1c(O)ccn2nc(-c3ccccc3)nc12 [Example 13, hydrochloride] has production activity (%) at 30 μM in vitro, human EPO smaller than 5%.
Response: rule met

* * *

- Tested on: human EPO production, Hep3B cells
- Test method notes: Human EPO production activity in Hep3B cells (EPO-ELISA of culture supernatant)
- Format: cell-based
- Conditions used: 24 hr incubation, values consisting solely of numbers, read-out: EC50 (μM) in vitro, human EPO production activity
Measurement type: EC50
Answers without a unit are incomplete; give the number and then its unit.

O=C(O)CNC(=O)c1c(O)cc(CCc2ccccc2)n2ncnc12 :: 5.6 µM

// moving on: another record for EC50
Prompt: Endpoint output: EC50 of `CCCCc1cc(O)c(C(=O)NCC(=O)O)c2ncnn12` . Value?
Response: 7.7 µM

* * *

- Tested on: human EPO production, Hep3B cells
- Test method notes: Human EPO production activity in Hep3B cells (EPO-ELISA of culture supernatant)
- Assay type: cell-based
- Conditions used: Homo sapiens, 24 hr incubation, values consisting solely of numbers, read-out: EC50 (μM) in vitro, human EPO production activity
Where a name gives a salt, the structure may show the parent alone.
Measurement type: EC50 (µM)
Enter your answer as a number in µM; do not include the unit.

O=C(O)CNC(=O)c1c(O)cc(Cc2ccc(F)cc2)n2ncnc12 [Example 63, acetic acid hydrochloride] :: 19.7
O=C(O)CNC(=O)c1c(O)cc(-c2cc(Cl)cc(Cl)c2)n2ncnc12 [Example 46, hydrochloride] :: 4.8
Cc1cccc(-c2cc(O)c(C(=O)NCC(=O)O)c3ncnn23)c1 [Example 51, acetic acid hydrochloride] :: 9.1

Next molecule, EC50 to be filled in.
Prompt: Consider the molecule shown here: O=C(O)CNC(=O)c1c(O)cc(-c2cc(Cl)cc(C(F)(F)F)c2)n2ncnc12 [Example 36, hydrochloride] What is its recorded EC50?
Response: 10.5

* * *

- Subject of test: human PHD2 (Homo sapiens, UniProt Q9GZT9)
- Construct: made in house; host or cells: Sf9 insect cells (baculovirus, pVL1393 vector)
- Sequence (Q9GZT9 whole entry): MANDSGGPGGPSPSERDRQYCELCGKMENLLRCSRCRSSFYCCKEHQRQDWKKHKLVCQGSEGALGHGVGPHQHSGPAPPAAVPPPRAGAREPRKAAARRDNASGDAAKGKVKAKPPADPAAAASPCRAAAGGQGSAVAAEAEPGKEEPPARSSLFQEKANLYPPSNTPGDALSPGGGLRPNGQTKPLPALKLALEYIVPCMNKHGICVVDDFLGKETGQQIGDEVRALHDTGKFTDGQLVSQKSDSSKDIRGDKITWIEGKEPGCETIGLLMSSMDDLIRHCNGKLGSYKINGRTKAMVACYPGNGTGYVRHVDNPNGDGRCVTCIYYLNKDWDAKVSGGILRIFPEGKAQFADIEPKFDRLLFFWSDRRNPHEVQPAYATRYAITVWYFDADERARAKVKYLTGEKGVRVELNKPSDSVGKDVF
- Test method notes: Measurement of human PHD inhibitory activity (TR-FRET, hydroxylation of HIF-1α partial peptide)
- Format: biochemical
- Conditions used: human PHD2 enzyme 1 nM, 25° C. 30 min, values consisting solely of numbers; read-out: IC50 (μM) in vitro, human PHD inhibitory activity
Counter-ions that a name gives are not always drawn.
Classes based on IC50: class 1 = under 0.2 µM, class 2 = from 0.2 µM up to 0.4 µM, class 3 = 0.4 µM and over

Prompt: // return the class label for Cl.O=C(O)CNC(=O)c1c(O)c(-c2ccccc2)cn2c(-c3ccccc3)nnc12 [Example 111, acetic acid hydrochloride]
Response: class 3

Prompt: Please let me know in which category the item O=C(O)CNC(=O)c1c(O)cc(-c2cc(F)cc(Cl)c2)n2ncnc12 [Example 41, hydrochloride] belongs.
Response: class 2

Prompt: Textbook exercise: identify the category of the compound given here, Cc1cc(F)cc(-c2cc(O)c(C(=O)NCC(=O)O)c3ncnn23)c1 [Example 79, acetic acid hydrochloride] , according to its measured value.
Response: class 2

Prompt: Given O=C(O)CNC(=O)c1c(O)cc(-c2ccc(Cl)c(Cl)c2)c2ncnn12 [Example 95, acetic acid hydrochloride] , name the class its IC50 places it in.
Response: class 1

Prompt: For O=C(O)CNC(=O)c1c(O)cc(C2CCCCCC2)n2ncnc12 [Example 58, acetic acid hydrochloride] , which IC50 bin applies?
Response: class 3

Prompt: Place this compound in its band: O=C(O)CNC(=O)c1c(O)cc(-c2cccc(Cl)c2F)n2ncnc12 [Example 56, acetic acid hydrochloride]
Response: class 1

Prompt: Lab note: which band did O=C(O)CNC(=O)c1c(O)cc(CCC2CCC2)n2ncnc12 [Example 54, acetic acid hydrochloride] land in?
Response: class 3

Prompt: Into which bin does this compound go? O=C(O)CNC(=O)c1c(O)cc(-c2ccc(F)cc2F)n2ncnc12 [Example 77, acetic acid hydrochloride]
Response: class 2

Prompt: Form: Item = O=C(O)CNC(=O)c1c(O)c(CCc2ccccc2)cn2ncnc12 [Example 5, hydrochloride] ; Class = ?
Response: class 3

The values you see were collected from patent US8283465B2.
